Source of measurements: patent US10829478B2

Form field: pIC50 (one value per entry).
- MEASURED TARGET: human ADAMTS-5 (Homo sapiens (Human), UniProt Q9UNA0)
- Sequence (Q9UNA0 262-930): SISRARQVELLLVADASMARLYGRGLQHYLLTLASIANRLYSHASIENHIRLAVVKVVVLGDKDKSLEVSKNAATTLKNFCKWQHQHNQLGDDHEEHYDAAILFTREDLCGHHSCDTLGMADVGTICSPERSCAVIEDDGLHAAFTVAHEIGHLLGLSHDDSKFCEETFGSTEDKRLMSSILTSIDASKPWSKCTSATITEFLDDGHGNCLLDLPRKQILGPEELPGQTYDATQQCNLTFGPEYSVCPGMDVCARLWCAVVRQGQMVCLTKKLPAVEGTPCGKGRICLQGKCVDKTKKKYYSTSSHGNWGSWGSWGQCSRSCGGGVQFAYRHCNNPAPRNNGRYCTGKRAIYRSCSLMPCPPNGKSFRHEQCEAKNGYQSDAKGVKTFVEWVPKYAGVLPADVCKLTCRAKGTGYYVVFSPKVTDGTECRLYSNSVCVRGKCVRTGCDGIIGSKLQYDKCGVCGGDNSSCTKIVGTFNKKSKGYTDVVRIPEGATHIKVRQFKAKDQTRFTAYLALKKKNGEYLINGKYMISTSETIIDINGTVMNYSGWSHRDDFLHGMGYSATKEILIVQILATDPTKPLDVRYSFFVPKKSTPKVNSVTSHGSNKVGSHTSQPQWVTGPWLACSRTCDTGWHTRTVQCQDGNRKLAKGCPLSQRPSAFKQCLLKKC
- PROTOCOL SUMMARY: hADAMTS-5 TBIS-1 cleavage assay, Protocol 3
- Type: biochemical
- CONDITION PARAMETERS: 90 min at 37° C., read-out: hADAMTS-5 potency IC50
pIC50: −log10 of the molar value.

# COMPOUND, MEASURED TARGET, pIC50
rows = [
    ("COc1cc(N2CCN(C(=O)CC[C@H]3NC(=O)NC3=O)CC2)cc(F)c1Cl", "human ADAMTS-5 (Homo sapiens (Human), UniProt Q9UNA0)", "< 7.00"),
    ("COc1cc(N2CCN(C(=O)CCC3(C)NC(=O)NC3=O)C[C@@H]2C)cc(F)c1F (stereo partly shown)", "human ADAMTS-5 (Homo sapiens (Human), UniProt Q9UNA0)", "< 7.00"),
    ("COc1cc(N2CCN(C(=O)CCC3(C)NC(=O)NC3=O)CC2)ccc1Cl (stereo not shown)", "human ADAMTS-5 (Homo sapiens (Human), UniProt Q9UNA0)", "< 7.00"),
    ("COc1cc(N2CCN(C(=O)[C@@H](C)C[C@@]3(C)NC(=O)NC3=O)C[C@@H]2C)cc(F)c1F (mixture of isomers)", "human ADAMTS-5 (Homo sapiens (Human), UniProt Q9UNA0)", "7.60 to 12.00"),
]
